Listed next: entries and their corresponding Ki.
Molecular target: Human 5-HT2C receptor (Homo sapiens, UniProt P28335)
Construct: expressed in transfected cells; host or cells: HEK293 (HEK293-h5-HT2C-5 cell line), membranes
Sequence (P28335 33-458): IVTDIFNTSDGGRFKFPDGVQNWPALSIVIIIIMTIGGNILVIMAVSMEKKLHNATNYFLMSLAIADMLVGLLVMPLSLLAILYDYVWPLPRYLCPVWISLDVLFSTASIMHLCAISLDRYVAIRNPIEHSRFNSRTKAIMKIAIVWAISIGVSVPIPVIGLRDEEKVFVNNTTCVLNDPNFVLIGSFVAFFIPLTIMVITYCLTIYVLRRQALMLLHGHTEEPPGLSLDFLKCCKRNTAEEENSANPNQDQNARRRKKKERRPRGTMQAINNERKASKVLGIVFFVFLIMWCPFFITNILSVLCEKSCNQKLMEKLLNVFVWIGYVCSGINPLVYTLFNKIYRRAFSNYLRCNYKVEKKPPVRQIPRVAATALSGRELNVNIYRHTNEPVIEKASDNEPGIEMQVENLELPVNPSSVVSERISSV
Experiment: Test A: scintillation proximity radioligand binding assay with [3H]serotonin
Conditions: membranes of HEK293-h5-HT2C-5 cells; [3H]serotonin final 4 nM; IC50 converted by Cheng-Prusoff, Kd 7 nM; read-out: Receptor binding 5HT2c Ki
Where a name gives a salt, the structure may show the parent alone.
Quantity name: Ki (nM)

1. Cc1ccc2c3c1c1c(n3CCO2)CCNCC1 [Example 20, hydrochloride] | 3.8
2. CC1Cn2c3c(c4cccc(c42)O1)CCNCC3 (stereo not drawn) [Example 26, hydrochloride] | 29
3. Fc1ccc2c3c1c1c(n3CCO2)CCNCC1 [Example 25, hydrochloride] | 8
4. Cc1cc2c3c(c1)c1c(n3CCC2)CCNCC1 [Example 2, hydrochloride] | 80
5. c1cc2c3c(c1)c1c(n3CCO2)CCNCC1 [Example 21, hydrochloride] | 16
6. CC1c2cccc3c4c(n(c23)C1C)CCNCC4 (stereo not drawn) [Example 18, hydrochloride] | 52
7. CC1Cc2cccc3c4c(n(c23)C1)CCNCC4 (single isomer, unassigned; (-)) [Example 11, hydrochloride] | 96
8. Fc1cc2c3c(c1)c1c(n3CCO2)CCNCC1 [Example 23, hydrochloride] | 13
9. Clc1ccc2c3c1c1c(n3CCO2)CCNCC1 [Example 22, hydrochloride] | 2.3
10. Fc1cc2c3c(c1)c1c(n3CCC2)CCNCC1 [Example 4, hydrochloride] | 83
11. CC1CCc2cccc3c4c(n1c23)CCNCC4 (stereo not drawn) [Example 5, hydrochloride] | 33
12. CC1Cc2cccc3c4c(n(c23)C1)CCNCC4 (single isomer, unassigned; (+)) [Example 10, hydrochloride] | 70
13. c1cc2c3c(c1)c1c(n3CCS2)CCNCC1 [Example 27, hydrochloride] | 5.1
14. c1cc2c3c(c1)c1c(n3CCC2)CCNCC1 [Example 1, hydrochloride] | 13
15. CC1CCc2cccc3c4c(n1c23)CCNCC4 (single isomer, unassigned; (-)) [Example 9, hydrochloride] | 26
16. CC1CCc2cccc3c4c(n1c23)CCNCC4 (single isomer, unassigned; (+)) [Example 8, hydrochloride] | 51
17. c1cc2c3c(c1)c1c(n3C3CCCCC23)CCNCC1 (stereo not drawn) [Example 19, hydrochloride] | 144
18. CC1Cc2cccc3c4c(n(c23)C1)CCNCC4 (stereo not drawn) [Example 6, hydrochloride] | 44

###

The entries below come with measured log10 of Ki values attached.
Biological target: Human 5-HT2C receptor (Homo sapiens, UniProt P28335)
Construct: expressed in transfected cells; host or cells: HEK293 (HEK293-h5-HT2C-5 cell line), membranes
Assay: Test A: scintillation proximity radioligand binding assay with [3H]serotonin
Conditions: Receptor binding 5HT2c Ki (nM), membranes of HEK293-h5-HT2C-5 cells; [3H]serotonin final 4 nM; IC50 converted by Cheng-Prusoff, Kd 7 nM
Counter-ions that a name gives are not always drawn.
Quantity name: log10 of Ki (log10 of the value in nM)

1. CC1CCn2c3c(c4cccc1c42)CCNCC3 (stereo not drawn) [Example 7, hydrochloride] | 1.89
2. Fc1cc2c3c(c1)c1c(n3CC2)CCNCC1 [Example 15, hydrochloride] | 1.38
3. COc1ccc2c3c1c1c(n3CCC2)CCNCC1 [Example 3, hydrochloride] | 1.43
4. CC1CCn2c3c(c4cccc1c42)CCNCC3 (single isomer, unassigned; (+)) [Example 12, hydrochloride] | 1.61
5. CC1CCn2c3c(c4cccc1c42)CCNCC3 (single isomer, unassigned; (-)) [Example 13, hydrochloride] | 1.65
6. CC1Cc2cccc3c4c(n1c23)CCNCC4 (stereo not drawn) [Example 17, hydrochloride] | 1.81
7. COc1cc2c3c(c1)c1c(n3CC2)CCNCC1 [Example 16, hydrochloride] | 2.56
8. c1cc2c3c(c1)c1c(n3CC2)CCNCC1 [Example 14, hydrochloride] | 1.45
9. Cc1cc2c3c(c1)c1c(n3CCO2)CCNCC1 [Example 24, hydrochloride] | 1.46
